Literature IC50 values, system: 5-hydroxytryptamine receptor 1A (Homo sapiens, UniProt P08908).
Target: 5-hydroxytryptamine receptor 1A (Homo sapiens, UniProt P08908)
Sequence (P08908 whole entry): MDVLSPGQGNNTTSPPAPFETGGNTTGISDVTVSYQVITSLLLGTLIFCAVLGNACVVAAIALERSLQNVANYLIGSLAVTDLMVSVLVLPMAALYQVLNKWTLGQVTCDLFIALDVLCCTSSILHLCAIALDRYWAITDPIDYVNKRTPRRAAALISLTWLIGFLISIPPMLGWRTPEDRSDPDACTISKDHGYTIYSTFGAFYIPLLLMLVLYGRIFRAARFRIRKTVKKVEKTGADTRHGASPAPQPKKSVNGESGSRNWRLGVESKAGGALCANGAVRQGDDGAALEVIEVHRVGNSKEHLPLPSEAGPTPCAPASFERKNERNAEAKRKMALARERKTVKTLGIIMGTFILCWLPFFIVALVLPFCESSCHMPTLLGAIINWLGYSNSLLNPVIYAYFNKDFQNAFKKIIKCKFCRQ
measured_property: IC50 (µM)

In [3]: df
Out[3]:
                                  compound                             tested_target  experimental_result
0  Fc1ccc(N2CCN(c3nc4ccsc4n4cccc34)CC2)cc1  5-hydroxytryptamine receptor 1A (Homo sapiens, UniProt P08908)                 43.7

1. COc1cc(N2CCN(C3CCN(c4ccc(F)c5c(C)cc(C)nc45)CC3)CC2)c2ncccc2c1
2. C=CCN1CCN(c2nc3ccsc3n3cccc23)CC1
3. N#Cc1ccc2[nH]cc(CCCCN3CCN(c4ccc(-n5ccc6occc6c5=O)cc4)CC3)c2c1
4. CC1(C)CC(=O)N(CCCCN2CCN(c3ncc(F)cn3)CC2)C(=O)C1
[in] # sort list by recorded IC50, greatest to least Give the order by naming the labels one after another as requested.
[out] 4, 2, 1, 3

P. CCN(CCCc1c[nH]c2ccc(F)cc12)[C@H]1COc2c(F)ccc(C(N)=O)c2C1
Q. Fc1ccc(CN2CCN(c3nc4sccc4n4cccc34)CC2)cc1
[in] Lowest IC50? choose P or Q In your reply, give the label of the chosen option.
[out] P
(P: 0.135 µM, Q: 14.5 µM)

###

Literature pIC50 values, system: UniProt P08908.
Target: UniProt P08908
Sequence (P08908 whole entry): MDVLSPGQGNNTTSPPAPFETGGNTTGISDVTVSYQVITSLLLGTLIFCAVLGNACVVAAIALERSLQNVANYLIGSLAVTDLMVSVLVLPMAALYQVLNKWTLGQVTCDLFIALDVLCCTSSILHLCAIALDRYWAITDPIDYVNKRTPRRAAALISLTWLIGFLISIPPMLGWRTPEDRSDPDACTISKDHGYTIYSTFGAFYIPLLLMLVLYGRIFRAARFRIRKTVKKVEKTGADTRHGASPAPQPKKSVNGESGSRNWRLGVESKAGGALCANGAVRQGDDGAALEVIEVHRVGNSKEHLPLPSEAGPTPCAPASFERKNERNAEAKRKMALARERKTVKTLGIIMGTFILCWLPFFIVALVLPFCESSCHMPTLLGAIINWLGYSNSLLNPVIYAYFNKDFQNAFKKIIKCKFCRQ
pIC50: −log10 of the molar value.
measured_property: pIC50

>>> df
                                   compound  measured_property  experimental_result
0  CCCN(CCC)CC1(N(CCC)CCC)COc2cccc(OC)c2C1 (stereo not drawn)              pIC50                 5.38

1. C[C@H]1c2cccc(CCC(C)(C)O)c2C[C@H](CO)N1C(=O)Cc1c(Cl)cccc1Cl (stereo in doubt; form 1)
2. CC(CCc1c[nH]c2ccc(F)cc12)N(CC1CC1)C1COc2c(F)ccc(C(N)=O)c2C1 (single isomer, unassigned; (-))
[in] Which shows the larger pIC50 value: 1 or 2 ? In your reply, give the label of the chosen option.
[out] 2

###

Literature IC50 values, system: 5-hydroxytryptamine receptor 1A (Homo sapiens, UniProt P08908).
measured_property: IC50 (nM)

>>> df
                                smiles_text                             tested_target  experimental_result
0  CCCN(CCCc1c[nH]c2ccc(F)cc12)[C@H]1COc2c(F)ccc(C(N)=O)c2C1  5-hydroxytryptamine receptor 1A (Homo sapiens, UniProt P08908)                  405
1  CC(=O)O.O=S(=O)(c1cccc(CCCCOCCCCCCNC[C@H](O)c2ccc(O)c(CO)c2)c1)C1CCCC1  5-hydroxytryptamine receptor 1A (Homo sapiens, UniProt P08908)                  100
2  FC(F)(F)c1cccc(N2CCN(c3nc4sccc4n4cccc34)CC2)c1  5-hydroxytryptamine receptor 1A (Homo sapiens, UniProt P08908)                12600

I. COc1ccccc1N1CCN(CCCCN2C(=O)CC3(CCCC3)CC2=O)CC1
II. CN1CCN(c2nc3sc(-c4ccccc4)cc3n3cccc23)CC1
III. FC(F)(F)c1ccccc1CCN1CCN(c2nc3ccsc3n3cccc23)CC1
IV. CCOC(=O)CN1CCN(c2nc3ccsc3n3cccc23)CC1
[in] List the 4 entries from lowest IC50 to highest IC50 value. Give the order by naming the labels one after another as requested.
[out] I, III, IV, II
(I: 2 nM, III: 72.4 nM, IV: 257 nM, II: 15500 nM)

###

Target: 5-hydroxytryptamine receptor 1A (Homo sapiens)
Sequence (P08908 whole entry): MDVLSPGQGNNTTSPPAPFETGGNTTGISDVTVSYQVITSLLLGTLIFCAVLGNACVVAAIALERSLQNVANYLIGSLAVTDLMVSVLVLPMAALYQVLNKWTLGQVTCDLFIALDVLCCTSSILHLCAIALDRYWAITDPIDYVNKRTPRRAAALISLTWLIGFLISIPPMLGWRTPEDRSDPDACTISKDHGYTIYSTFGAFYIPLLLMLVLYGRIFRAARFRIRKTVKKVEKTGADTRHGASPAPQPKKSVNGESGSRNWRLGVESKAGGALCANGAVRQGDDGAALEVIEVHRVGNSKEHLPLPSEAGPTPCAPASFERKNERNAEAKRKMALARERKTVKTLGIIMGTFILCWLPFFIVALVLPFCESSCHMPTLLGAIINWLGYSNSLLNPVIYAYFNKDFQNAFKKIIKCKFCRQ
Literature IC50 values, system: 5-hydroxytryptamine receptor 1A (Homo sapiens).
measured_property: IC50 (nM)

1. COc1cc(N2CCN(C3CCN(c4cccc5cc(C)cnc45)CC3)CC2)c2ncccc2c1
2. C[N+]1(Cc2ccccc2)CCN(c2nc3ccsc3n3cccc23)CC1
3. N#Cc1ccc2[nH]cc(CCCCN3CCN(c4ccc(-n5ccc6ncccc6c5=O)cc4)CC3)c2c1
[in] // ascending sort on IC50 for the entries above Give the order by naming the labels one after another as requested.
[out] 3, 1, 2

###

Target chain: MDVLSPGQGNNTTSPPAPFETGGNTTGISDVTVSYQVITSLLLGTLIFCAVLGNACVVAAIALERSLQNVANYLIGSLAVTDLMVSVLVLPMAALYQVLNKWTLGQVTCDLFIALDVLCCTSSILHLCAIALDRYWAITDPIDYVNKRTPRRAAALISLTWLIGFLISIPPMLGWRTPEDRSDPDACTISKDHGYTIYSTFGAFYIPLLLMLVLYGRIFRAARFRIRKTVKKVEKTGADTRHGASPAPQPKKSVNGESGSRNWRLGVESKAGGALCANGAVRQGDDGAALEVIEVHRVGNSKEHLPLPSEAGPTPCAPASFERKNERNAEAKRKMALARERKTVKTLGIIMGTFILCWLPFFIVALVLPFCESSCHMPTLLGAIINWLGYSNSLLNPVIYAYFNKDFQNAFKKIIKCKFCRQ
pIC50: −log10 of the molar value.
Literature pIC50 values, system: the protein given by its sequence.
measured_property: pIC50

Sample answers from the record:
>>> print(df.to_string())
                                   compound  measured_property  experimental_result
0  O=C(CN1CCN(c2nc3ccsc3n3cccc23)CC1)N1CCCC1              pIC50                 6.39
1  COc1ccccc1N1CCN(CC(O)CCN2C(=O)CC3(CCCC3)CC2=O)CC1 (stereo not given)              pIC50                 7.92
2  CCOc1ccccc1N1CCN(CCCC(=O)NCc2nc3ccc(F)cc3c(=O)n2-c2ccccc2)CC1              pIC50                 6.30
3  O=C1CC2(CCCC2)CC(=O)N1CCCCN1CCN(c2ncc(F)cn2)CC1              pIC50                 7.20
4  COc1cc(N2CCN(C3CCN(c4cc(F)cc5cccnc45)CC3)CC2)c2ncccc2c1              pIC50                 7.33
5  c1ccc(CN2CCN(c3nc4scc(-c5ccccc5)c4n4cccc34)CC2)cc1              pIC50                 4.59
6  Cc1nc(C(=O)NCCCN2CCN(c3cccc(Cl)c3Cl)CC2)c(C)n1-c1ccccc1              pIC50                 8.31
7  COc1cc(N2CCN(C3CCN(c4cccc5c(OC)cc(C(F)(F)F)nc45)CC3)CC2)c2ncccc2c1              pIC50                 7.52

a. COc1ccccc1N1CCN(CCN(C(=O)C23C4C5C2C2C3C4C52CF)c2ccccn2)CC1 (stereo not given)
b. Clc1ccc(C(c2ccccc2)N2CCN(c3nc4ccsc4n4cccc34)CC2)cc1 (stereo not given)
c. CN(C)CC1CC2c3ccccc3Cc3ccccc3N2O1 (stereo in doubt; 2a)
d. CCCN(CCC)CC1COc2cccc(OC)c2C1 (stereo not given)
[in] # sort list by recorded pIC50, greatest to least Give the order by naming the labels one after another as requested.
[out] a, d, c, b
(a: 8.90, d: 6.63, c: 6.01, b: 3.69)

a. COc1ccccc1N1CCN(CCN(C(=O)C23CCC(CF)(CC2)CC3)c2ccccn2)CC1
b. c1cc2c(N3CCOCC3)nc3ccsc3n2c1
[in] Which shows the larger pIC50 value: a or b ? In your reply, give the label of the chosen option.
[out] a
(a: 8.82, b: 4.49)
